# System: SK-OV-3
# test name: Growth inhibition assay (SRB)
# Assay type: cell-based
# condition parameters: 1 μM, 3 days of treatment, Table II
readout type: Percentage of growth inhibition, SKOV−3 (%)
Give bare numbers, in %.

INSERT INTO assay_data (chemical_structure, readout_type, unit_tag, obs_value) VALUES
  ('CCCCOC(=O)c1ccc(NC(=O)Nc2cc3c(cc2OC)C(C)(C)COC3(C)C)cc1', 'Percentage of growth inhibition, SKOV−3', '%', 22.2);

Value sought for every listed compound: Percentage of growth inhibition, SKOV−3.
1. CC1(C)CC(C)(C)c2cc(NC(=S)Nc3ccc(S(N)(=O)=O)cc3)ccc2S1
2. CC1(C)CC(C)(C)c2cc(NC(=O)Nc3ccc(C(=O)O)cc3)ccc2S1
3. CCOC(=O)c1ccc(NC(=S)Nc2cccc3c2SC(C)(C)CC3(C)C)cc1

(A)
−1.86
3.58
−0.79

----------
Exercise: state measured Percentage of growth inhibition, CAOV−3 for each of the molecules provided.
# Tested on: CAOV-3
# test name: Growth inhibition assay (SRB)
# Assay type: cell-based
# condition parameters: 1 μM, 3 days of treatment, Table II
Answers are plain numbers, in %.

Before answering, review these 3 worked examples.
INSERT INTO measurements (chemical_structure, readout_type, obs_value) VALUES
  ('CCOC(=O)c1ccc(NC(=O)Nc2cc3c(cc2OC)C(C)(C)COC3(C)C)cc1', 'Percentage of growth inhibition, CAOV−3', 3.79),
  ('CCOC(=O)c1ccc(NC(=S)Nc2cccc3c2SC(C)(C)CC3(C)C)cc1', 'Percentage of growth inhibition, CAOV−3', 11.36),
  ('CC1(C)CC(C)(C)c2cccc(NC(=S)Nc3ccc([N+](=O)[O-])cc3)c2S1', 'Percentage of growth inhibition, CAOV−3', '−9.97');

(Q) Can you look up the measured Percentage of growth inhibition, CAOV−3 of `COc1ccc2c(c1NC(=S)Nc1ccc([N+](=O)[O-])cc1)C(C)(C)COC2(C)C` for me?
(A) 7.58

----------
# System: SK-OV-3
# test name: Growth inhibition assay (SRB)
# Assay type: cell-based
# condition parameters: 10 μM, 3 days of treatment, Table III
readout type: Percentage of growth inhibition, SKOV−3

Before answering, review these 5 worked examples.
INSERT INTO measurements (compound, readout_type, obs_value) VALUES
  ('CC1(C)CC(C)(C)c2cc(NC(=S)Nc3ccc(S(N)(=O)=O)cc3)ccc2S1', 'Percentage of growth inhibition, SKOV−3', '9.83%'),
  ('CC1(C)CC(C)(C)c2cc(NC(=O)Nc3ccc(C(=O)O)cc3)ccc2S1', 'Percentage of growth inhibition, SKOV−3', '0.43%'),
  ('CC(=O)c1cc(NC(=S)Nc2ccc([N+](=O)[O-])cc2)c2c(c1)C(C)(C)CCO2', 'Percentage of growth inhibition, SKOV−3', '0.25%'),
  ('CC1=C(/C=C/C(C)=C/C=C/C(C)=C/C(=O)Nc2ccc(O)cc2)C(C)(C)CCC1 [4-HPR, 4-hydroxyphenylretinamide, reference compound]', 'Percentage of growth inhibition, SKOV−3', '64.9%'),
  ('CCOC(=O)c1ccc(NC(=S)Nc2cccc3c2SC(C)(C)CC3(C)C)cc1', 'Percentage of growth inhibition, SKOV−3', '7.67%');

Value sought for every listed compound: Percentage of growth inhibition, SKOV−3.
1. COc1cc2c(cc1NC(=S)Nc1ccc([N+](=O)[O-])cc1C)C(C)(C)OCC2(C)C
2. Cc1cc2c(cc1NC(=S)Nc1ccc(S(N)(=O)=O)cc1)C(C)(C)CC(C)(C)S2
3. CCCCOC(=O)c1ccc(NC(=O)Nc2c(OC)ccc3c2C(C)(C)COC3(C)C)cc1

(A)
−14.3%
12.1%
9.27%

(Q) Can you look up the measured Percentage of growth inhibition, SKOV−3 of `CCOC(=O)c1ccc(NC(=O)Nc2cc3c(cc2OC)C(C)(C)COC3(C)C)cc1` for me?
(A) 15.60%

----------
# System: SK-OV-3
# test name: Growth inhibition assay (SRB)
# Assay type: cell-based
# condition parameters: 10 μM, 3 days of treatment, Table III
readout type: Percentage of growth inhibition, SKOV−3 (%)
Numbers only, in %.

Before answering, review these 5 worked examples.
INSERT INTO results (chemical_structure, obs_value) VALUES
  ('Cc1cc2c(cc1NC(=S)Nc1ccc([N+](=O)[O-])cc1)C(C)(C)CC(C)(C)S2', 65.3),
  ('Cc1cc2c(cc1NC(=S)Nc1ccc(C(=O)O)cc1)C(C)(C)CC(C)(C)S2', 8.5),
  ('COc1ccc2c(c1NC(=S)Nc1ccc([N+](=O)[O-])cc1)C(C)(C)COC2(C)C', 45.45),
  ('CCCCOC(=O)c1ccc(NC(=O)Nc2cc3c(cc2OC)C(C)(C)COC3(C)C)cc1', 6.0),
  ('Cc1cc([N+](=O)[O-])ccc1NC(=S)Nc1ccc2c(c1)C(C)(C)CC(C)(C)S2', 52.81);

Value sought for every listed compound: Percentage of growth inhibition, SKOV−3.
1. CCOC(=O)c1ccc(NC(=O)Nc2cccc3c2SC(C)(C)CC3(C)C)cc1
2. Cc1cc([N+](=O)[O-])ccc1NC(=S)Nc1cc2c(cc1C)SC(C)(C)CC2(C)C

(A)
[7.98, 33.3]

----------
# Tested on: SK-OV-3
# test name: Growth inhibition assay (SRB)
# Format: cell-based
# condition parameters: 1 μM, 3 days of treatment, Table II
// condition not met strictly below 10% in Percentage of growth inhibition, SKOV−3; condition met otherwise

INSERT INTO measurements (compound, label) VALUES
  ('CC1(C)CC(C)(C)c2cccc(NC(=S)Nc3ccc([N+](=O)[O-])cc3)c2S1', 'condition not met'),
  ('Cc1cc([N+](=O)[O-])ccc1NC(=S)Nc1cc2c(cc1C)SC(C)(C)CC2(C)C', 'condition met'),
  ('Cc1cc2c(cc1NC(=S)Nc1ccc(S(N)(=O)=O)cc1)C(C)(C)CC(C)(C)S2', 'condition met'),
  ('COc1ccc2c(c1NC(=S)Nc1ccc([N+](=O)[O-])cc1)C(C)(C)COC2(C)C', 'condition not met'),
  ('Cc1cc2c(cc1NC(=S)Nc1ccc(C(=O)O)cc1)C(C)(C)CC(C)(C)S2', 'condition met');

Next up:
(Q) Hello, I need to know if CC1=C(/C=C/C(C)=C/C=C/C(C)=C/C(=O)Nc2ccc(O)cc2)C(C)(C)CCC1 [4-HPR, 4-hydroxyphenylretinamide, reference compound] has measured Percentage of growth inhibition, SKOV−3 not below 10%. Thanks!
(A) condition not met

----------
# Tested on: SK-OV-3
# test name: Growth inhibition assay (SRB)
# Format: cell-based
# condition parameters: 1 μM, 3 days of treatment, Table II
readout type: Percentage of growth inhibition, SKOV−3 (%)
One number for each entry, in %.

Before answering, review these 2 worked examples.
INSERT INTO assay_data (chemical_structure, obs_value) VALUES
  ('CC(=O)c1cc(NC(=S)Nc2ccc([N+](=O)[O-])cc2)c2c(c1)C(C)(C)CCO2', '−1.53'),
  ('Cc1cc([N+](=O)[O-])ccc1NC(=S)Nc1ccc2c(c1)C(C)(C)CC(C)(C)S2', '−1.67');

# next compound below
(Q) Can you look up the measured Percentage of growth inhibition, SKOV−3 of `Cc1cc2c(cc1NC(=S)Nc1ccc([N+](=O)[O-])cc1)C(C)(C)CC(C)(C)S2` for me?
(A) 3.0

These measurements were taken from patent US6586460B1.
